Ref: ChEMBL document CHEMBL5705896

# protocol: Cytotoxicity against human MCF-10A cells assessed as reduction in cell viability by alamar blue assay
# Format: toxicity, cell-based
experimental endpoint: EC50 (µM)
A number alone suffices; assume µM.

### Prompt Quick check: EC50 of CCCc1cc(C)n(C)c(=O)c1CN(C)C(=O)c1cc(-c2ccc(N3CCN(C(C)C)CC3)nc2)cc2c1cnn2C(C)C ?
### Response 27.5

* * *

# measured target: UniProt:P23975
# Sequence (P23975 whole entry): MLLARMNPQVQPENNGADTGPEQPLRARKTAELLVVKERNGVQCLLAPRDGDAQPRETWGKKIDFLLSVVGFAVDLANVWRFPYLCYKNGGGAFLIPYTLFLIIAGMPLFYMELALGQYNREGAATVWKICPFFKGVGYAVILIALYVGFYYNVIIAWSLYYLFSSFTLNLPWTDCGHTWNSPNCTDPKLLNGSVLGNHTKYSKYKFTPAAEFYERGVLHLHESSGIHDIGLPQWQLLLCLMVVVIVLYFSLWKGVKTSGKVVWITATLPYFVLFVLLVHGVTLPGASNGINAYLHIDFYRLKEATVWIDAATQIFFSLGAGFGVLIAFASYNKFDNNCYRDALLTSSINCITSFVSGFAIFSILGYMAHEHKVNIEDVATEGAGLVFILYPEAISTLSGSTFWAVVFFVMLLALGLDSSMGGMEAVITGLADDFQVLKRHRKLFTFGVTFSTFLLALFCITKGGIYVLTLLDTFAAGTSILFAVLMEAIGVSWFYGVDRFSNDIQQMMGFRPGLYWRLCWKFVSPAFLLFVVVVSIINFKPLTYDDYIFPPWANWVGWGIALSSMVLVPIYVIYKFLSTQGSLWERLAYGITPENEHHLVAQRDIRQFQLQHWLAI
experimental endpoint: Ki (nM)
A number alone suffices; assume nM.

### Prompt Quick check: Ki of CCCc1cc(C)[nH]c(=O)c1CNC(=O)c1cc(-c2ccc(N3CCN(C(C)C)CC3)nc2)cc2c1cnn2C(C)C ?
### Response 1500

* * *

# measured target: Histone-lysine N-methyltransferase EZH1 (Homo sapiens)
# Sequence (Q92800 whole entry): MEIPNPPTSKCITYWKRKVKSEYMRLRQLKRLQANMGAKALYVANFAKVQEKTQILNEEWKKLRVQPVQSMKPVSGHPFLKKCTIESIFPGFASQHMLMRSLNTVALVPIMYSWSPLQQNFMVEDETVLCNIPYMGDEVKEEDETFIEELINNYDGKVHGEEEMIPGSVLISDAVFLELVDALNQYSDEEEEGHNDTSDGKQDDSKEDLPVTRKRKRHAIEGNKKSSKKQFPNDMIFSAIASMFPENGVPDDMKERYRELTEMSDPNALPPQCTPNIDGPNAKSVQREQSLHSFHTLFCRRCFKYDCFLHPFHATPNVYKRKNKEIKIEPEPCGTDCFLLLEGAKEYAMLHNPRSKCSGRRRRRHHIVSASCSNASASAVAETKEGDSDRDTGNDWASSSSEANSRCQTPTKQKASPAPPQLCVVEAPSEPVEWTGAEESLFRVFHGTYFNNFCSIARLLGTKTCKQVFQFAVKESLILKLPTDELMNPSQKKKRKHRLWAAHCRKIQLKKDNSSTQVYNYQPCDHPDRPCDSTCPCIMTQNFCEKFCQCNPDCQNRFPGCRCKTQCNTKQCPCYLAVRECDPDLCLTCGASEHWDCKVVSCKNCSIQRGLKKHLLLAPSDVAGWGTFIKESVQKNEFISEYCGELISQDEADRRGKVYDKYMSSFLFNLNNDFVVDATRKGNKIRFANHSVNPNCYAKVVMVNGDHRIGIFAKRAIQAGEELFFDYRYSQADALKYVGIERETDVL
# protocol: Inhibition of EZH1 methyltransferase activity (unknown origin) in PRC2 complex using 3H-SAM as substrate by Scintillation proximity assay
experimental endpoint: IC50

### Prompt Quick check: IC50 of CCCc1cc(C)n(C)c(=O)c1CN(C)C(=O)c1cc(-c2ccc(N3CCN(C(C)C)CC3)nc2)cc2c1cnn2C(C)C ?
### Response 62 µM

* * *

# measured target: Histone-lysine N-methyltransferase EZH2 (Homo sapiens)
# protocol: Inhibition of EZH2 methyltransferase activity (unknown origin) in PRC2 complex using 3H-SAM as substrate by Scintillation proximity assay
Form field: pIC50 (one value per entry).
pIC50 is a log-scale quantity: -log10 of the concentration expressed in molar.

Some entries whose results are on file:
compound string	experimental endpoint	data value
CCCc1cc(C)n(C)c(=O)c1CN(C)C(=O)c1cc(-c2ccc(N3CCN(C(C)C)CC3)nc2)cc2c1cnn2C(C)C	pIC50	4.89
CCCc1cc(C)[nH]c(=O)c1CNC(=O)c1cc(-c2ccc(N3CCN(CCCCc4cn(CCN5C(=O)/C(=C/C=C/C=C6\N(CCC(=O)OCOC(C)=O)c7ccc(C(=O)OCOC(C)=O)cc7C6(C)C)C(=O)N(CC)C5=O)nn4)CC3)nc2)cc2c1cnn2C(C)C	pIC50	7.68
CCCc1cc(C)[nH]c(=O)c1CNC(=O)c1cc(-c2ccc(F)cc2)cc2c1cnn2C(C)C	pIC50	7.20
CCCc1cc(C)[nH]c(=O)c1CNC(=O)c1cc(-c2ccc(F)cn2)cc2c1cnn2C(C)C	pIC50	8.00

We next turn to a different compound, shown below.
### Prompt Quick check: pIC50 of CCCc1cc(C)[nH]c(=O)c1CNC(=O)c1cc(-c2ccc(N3CCN(C(=O)CCOCCOCCOCCOCCOCCOCCOCCOCCOCCOCCOCCOCCNC(=O)CCCC[C@@H]4SC[C@@H]5NC(=O)N[C@@H]54)CC3)nc2)cc2c1cnn2C(C)C ?
### Response 7.77

* * *

# measured target: Histone-lysine N-methyltransferase EZH2 (Homo sapiens, UniProt Q15910)
# Sequence (Q15910 whole entry): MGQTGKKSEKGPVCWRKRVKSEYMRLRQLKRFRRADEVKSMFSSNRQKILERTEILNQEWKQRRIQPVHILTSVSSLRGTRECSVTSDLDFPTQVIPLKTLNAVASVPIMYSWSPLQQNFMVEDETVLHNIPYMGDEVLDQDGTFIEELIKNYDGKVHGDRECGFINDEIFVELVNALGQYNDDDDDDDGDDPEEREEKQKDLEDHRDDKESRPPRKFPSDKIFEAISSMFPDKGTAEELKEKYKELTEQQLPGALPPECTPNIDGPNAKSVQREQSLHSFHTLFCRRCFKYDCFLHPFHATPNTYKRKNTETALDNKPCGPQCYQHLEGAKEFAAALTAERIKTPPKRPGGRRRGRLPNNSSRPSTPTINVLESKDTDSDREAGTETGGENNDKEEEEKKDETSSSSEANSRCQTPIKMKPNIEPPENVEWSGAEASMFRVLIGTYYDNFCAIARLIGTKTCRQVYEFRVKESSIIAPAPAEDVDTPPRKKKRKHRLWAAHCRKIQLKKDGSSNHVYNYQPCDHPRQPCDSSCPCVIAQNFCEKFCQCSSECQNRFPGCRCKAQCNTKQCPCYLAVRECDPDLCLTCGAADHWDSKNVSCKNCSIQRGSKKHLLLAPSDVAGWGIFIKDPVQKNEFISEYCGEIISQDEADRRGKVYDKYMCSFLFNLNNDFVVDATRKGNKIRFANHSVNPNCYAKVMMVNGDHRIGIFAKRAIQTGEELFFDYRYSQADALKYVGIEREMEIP
experimental endpoint: Ki (nM)
A number alone suffices; assume nM.

### Prompt Quick check: Ki of CCCc1cc(C)[nH]c(=O)c1CNC(=O)c1cc(-c2ccc(N3CCN(C(C)C)CC3)nc2)cc2c1cnn2C(C)C ?
### Response 4.6

* * *

# measured target: Sigma intracellular receptor 2 (Homo sapiens, UniProt Q5BJF2)
# Sequence (Q5BJF2 whole entry): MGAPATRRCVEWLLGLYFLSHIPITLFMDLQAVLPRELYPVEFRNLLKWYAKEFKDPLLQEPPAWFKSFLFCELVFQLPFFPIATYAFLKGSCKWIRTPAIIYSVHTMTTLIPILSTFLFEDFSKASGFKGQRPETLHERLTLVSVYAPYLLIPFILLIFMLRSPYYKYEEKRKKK
# protocol: Binding affinity to sigma 2 receptor (unknown origin) assessed as inhibition constant
experimental endpoint: Ki (µM)
A number alone suffices; assume µM.

### Prompt Quick check: Ki of CCCc1cc(C)[nH]c(=O)c1CNC(=O)c1cc(-c2ccc(N3CCN(C(C)C)CC3)nc2)cc2c1cnn2C(C)C ?
### Response 0.065
